tested.system: 5-HT2A receptor (Homo sapiens, UniProt P28223)
Construct: purchased PerkinElmer
Sequence (P28223 whole entry): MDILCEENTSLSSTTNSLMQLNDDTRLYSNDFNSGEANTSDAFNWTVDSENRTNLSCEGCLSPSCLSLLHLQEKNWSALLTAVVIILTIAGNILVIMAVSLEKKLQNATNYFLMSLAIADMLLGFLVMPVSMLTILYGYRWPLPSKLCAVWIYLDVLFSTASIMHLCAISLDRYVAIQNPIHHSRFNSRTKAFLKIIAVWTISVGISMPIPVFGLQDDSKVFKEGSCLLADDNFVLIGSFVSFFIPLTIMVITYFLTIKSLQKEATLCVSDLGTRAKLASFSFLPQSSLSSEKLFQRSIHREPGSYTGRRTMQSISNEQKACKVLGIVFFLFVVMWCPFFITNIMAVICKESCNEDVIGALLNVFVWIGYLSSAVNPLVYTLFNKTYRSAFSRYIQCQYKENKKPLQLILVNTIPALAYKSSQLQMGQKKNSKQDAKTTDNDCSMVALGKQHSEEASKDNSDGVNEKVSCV
measurement.protocol: Radioligand binding assay, serotoninergic 5-HT2A receptors
reported.conditions: binding assay result in %, Table 5a
# if measured 5-HT2A [%] < 80%: Fulfilled  # else: Not fulfilled

- Cc1cccc(S(=O)(=O)NCC2CCN(CCCc3noc4cc(F)ccc34)CC2)c1 [Compound 36]: Fulfilled
- O=S(=O)(NC1CCN(CCOc2cccc3c2OCCO3)C1)c1ccccc1 (stereo not drawn) [Compound 96]: Not fulfilled
- O=S(=O)(NC1CCN(CCOc2cccc3c2OCCO3)CC1)c1cccc2ccccc12 [Compound 100]: Not fulfilled
- Cc1cccc(S(=O)(=O)NC2CN(CCOc3cccc4c3OCCO4)C2)c1 [Compound 93]: Fulfilled
- O=S(=O)(NC1CN(CCOc2cccc3c2OCCO3)C1)c1ccc(F)cc1 [Compound 90]: Fulfilled

Task: Check if 5-HT2A [%] falls below 80% for O=S(=O)(NC1CCN(CCOc2cccc3c2OCCO3)C1)c1ccc2ccccc2c1 (stereo not drawn) [Compound 99] .
Result: Not fulfilled

Task: Check if 5-HT2A [%] falls below 80% for O=S(=O)(NCC1CCN(CCOc2ccc3cc[nH]c3c2)CC1)c1cccc2ccccc12 [Compound 71] .
Result: Fulfilled

----------
tested.system: serotonin transporter (SERT) (Homo sapiens)
Construct: expressed in transfected cells; host or cells: CHO cells
Sequence (P31645 whole entry): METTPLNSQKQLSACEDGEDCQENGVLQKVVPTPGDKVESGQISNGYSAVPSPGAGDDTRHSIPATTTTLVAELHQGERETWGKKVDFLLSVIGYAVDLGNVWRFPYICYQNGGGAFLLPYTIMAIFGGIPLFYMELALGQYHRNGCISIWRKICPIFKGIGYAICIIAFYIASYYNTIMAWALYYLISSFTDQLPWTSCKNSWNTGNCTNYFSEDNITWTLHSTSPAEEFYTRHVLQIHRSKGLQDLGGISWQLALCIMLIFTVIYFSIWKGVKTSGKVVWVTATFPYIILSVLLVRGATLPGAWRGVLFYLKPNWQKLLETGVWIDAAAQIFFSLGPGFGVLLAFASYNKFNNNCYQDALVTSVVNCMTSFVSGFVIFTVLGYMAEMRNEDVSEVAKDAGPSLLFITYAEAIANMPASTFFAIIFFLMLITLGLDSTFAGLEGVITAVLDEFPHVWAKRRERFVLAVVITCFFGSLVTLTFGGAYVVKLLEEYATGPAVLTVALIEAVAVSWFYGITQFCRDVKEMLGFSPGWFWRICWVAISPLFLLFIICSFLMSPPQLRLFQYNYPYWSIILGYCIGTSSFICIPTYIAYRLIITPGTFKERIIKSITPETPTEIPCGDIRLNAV
measurement.protocol: Radioligand binding assay, serotonin transporter (SERT)
reported.conditions: binding assay, test compound 1×10^−6 M
Exercise: state measured SERT [%] for each of the compounds provided.
Numbers only, in %.

Completed entries (count: 10):
* CC1(C)Cc2cccc(OCCN3CCC(NS(=O)(=O)c4cccc(O)c4)CC3)c2O1 | −10
* O=S(=O)(NC1CN(CCOc2cccc3c2OCCO3)C1)c1cccc(F)c1 | 3
* O=S(=O)(NCC1CCN(CCCc2noc3cc(F)ccc23)CC1)c1ccc2ccccc2c1 | 17
* O=S(=O)(NC1CCN(CCOc2cccc3ccccc23)CC1)c1cccc(O)c1 | 10
* Cc1cccc(S(=O)(=O)NC2CN(CCOc3cccc4c3OCCO4)C2)c1 | 23
* O=S(=O)(NC1CCN(CCOc2cccc3c2OCCO3)C1)c1ccc2ccccc2c1 (stereo not drawn) | 36
* O=S(=O)(NC1CCN(CCCc2noc3cc(F)ccc23)CC1)c1ccc2ccccc2c1 | 29
* O=S(=O)(NC1CN(CCOc2cccc3c2OCCO3)C1)c1ccc(Cl)cc1 | 10
* O=S(=O)(NCC1CN(CCCc2noc3cc(F)ccc23)C1)c1cc2ccccc2s1 [Compound 127] | 49
* O=S(=O)(NCC1CCN(CCOc2cccc3[nH]ccc23)CC1)c1ccc2ccccc2c1 | 38

# map each compound to its SERT [%]
1. O=S(=O)(NC1CCN(CCOc2cccc3[nH]ccc23)CC1)c1ccccc1
2. O=S(=O)(NC1CCN(CCOc2cccc3c2OCCO3)CC1)c1cccc2ccccc12
3. O=S(=O)(NC1CN(CCOc2cccc3c2OCCO3)C1)c1ccc2ccccc2c1
4. O=S(=O)(NC1CCN(CCOc2cccc3[nH]ccc23)CC1)c1ccc2ccccc2c1
5. O=S(=O)(NCC1CCN(CCCc2noc3cc(F)ccc23)CC1)c1cccc2ccccc12
6. O=S(=O)(NC1CCN(CCCc2noc3cc(F)ccc23)CC1)c1ccccc1
7. O=S(=O)(NC1CN(CCOc2cccc3c2OCCO3)C1)c1ccccc1
8. O=S(=O)(NC1CCN(CCOc2cccc3c2OCCO3)CC1)c1ccccc1

Result:
6
57
−4
43
30
5
−13
33

----------
Exercise: state measured 5-HT1A ag [%] for each of the compounds provided.
tested.system: 5-HT1A serotoninergic receptors (Homo sapiens, UniProt P08908)
Sequence (P08908 whole entry): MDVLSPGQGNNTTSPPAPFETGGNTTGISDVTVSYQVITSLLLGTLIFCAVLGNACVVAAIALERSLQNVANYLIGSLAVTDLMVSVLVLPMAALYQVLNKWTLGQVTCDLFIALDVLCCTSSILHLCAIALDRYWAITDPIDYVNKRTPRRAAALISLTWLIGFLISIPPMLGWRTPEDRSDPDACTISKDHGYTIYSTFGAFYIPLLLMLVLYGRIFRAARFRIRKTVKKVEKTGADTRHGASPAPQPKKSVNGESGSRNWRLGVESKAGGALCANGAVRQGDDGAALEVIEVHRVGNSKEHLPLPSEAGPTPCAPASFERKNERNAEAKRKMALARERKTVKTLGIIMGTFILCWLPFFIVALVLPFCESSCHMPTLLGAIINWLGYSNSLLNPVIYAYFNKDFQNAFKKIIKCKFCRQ
measurement.protocol: Cellular functional assay, 5-HT1A serotoninergic receptors
Type: cell-based
reported.conditions: agonist mode; percent of control specific agonist response
Method: The results are expressed as a percent of control specific agonist response ((measured specific response/control specific agonist response)×100) obtained in the presence of the test compounds. […] For the antagonists, the apparent dissociation constants (Kb) were calculated using the modified Cheng Prusoff equation (Kb=IC50/(1+(A/EC50A)), where A=concentration of reference agonist in the assay, and EC50A=EC50 value of the reference agonist).
Give bare numbers, in %.

Completed entries (count: 2):
- O=S(=O)(NC1CN(CCOc2cccc3[nH]ccc23)C1)c1ccc2ccccc2c1 [Compound 50]: 48
- O=S(=O)(NC1CN(CCOc2cccc3c2OCCO3)C1)c1ccc(Cl)cc1 [Compound 92]: 47

5-HT1A ag [%] for O=S(=O)(NC1CN(CCOc2cccc3[nH]ccc23)C1)c1cccc2ccccc12 [Compound 49] is 39

----------
tested.system: dopaminergic receptors D3 (Homo sapiens)
Sequence (P35462 whole entry): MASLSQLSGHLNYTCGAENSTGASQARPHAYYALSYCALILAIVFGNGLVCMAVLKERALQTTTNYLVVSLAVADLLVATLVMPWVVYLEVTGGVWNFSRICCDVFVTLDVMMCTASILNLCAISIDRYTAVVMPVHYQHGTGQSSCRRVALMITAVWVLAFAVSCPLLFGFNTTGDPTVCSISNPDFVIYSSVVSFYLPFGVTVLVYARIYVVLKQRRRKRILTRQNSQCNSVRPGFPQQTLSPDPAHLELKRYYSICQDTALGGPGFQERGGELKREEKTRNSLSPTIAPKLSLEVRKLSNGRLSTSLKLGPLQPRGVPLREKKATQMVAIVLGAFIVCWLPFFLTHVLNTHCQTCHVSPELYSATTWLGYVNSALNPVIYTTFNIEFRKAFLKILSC
measurement.protocol: Radioligand binding assay, dopaminergic D3 receptors
reported.conditions: test compound 1×10^−6 M
assay.metric: inhibition at 1 µM (%)
Give bare numbers, in %.

Completed entries (count: 8):
* O=S(=O)(N[C@@H]1CCN(CCCc2noc3cc(F)ccc23)C1)c1csc2ccccc12 [Compound 224] | 87
* O=S(=O)(NC1CCN(CCCc2c[nH]c3ccc(F)cc23)C1)c1cccc2ccccc12 (stereo not shown) [Compound 79] | 97
* O=S(=O)(N[C@@H]1CCN(CCCc2noc3cc(F)ccc23)C1)c1cc2ccc(Cl)cc2s1 [Compound 198] | 97
* O=S(=O)(NCC1CCN(CCOc2cccc3ccccc23)C1)c1ccc(F)c(F)c1 (stereo not shown) [Compound 278] | 94
* O=S(=O)(NCC1CCN(CCCc2noc3cc(F)ccc23)C1)c1cccc(Cl)c1 (stereo not shown) [Compound 243] | 47
* O=S(=O)(NC1CCN(CCCc2noc3cc(F)ccc23)C1)c1cc2ccccc2o1 (stereo not shown) [Compound 216] | 85
* O=S(=O)(NC1CCN(CCCc2noc3cc(F)ccc23)C1)c1ccc2c(c1)OCO2 (stereo not shown) [Compound 194] | 48
* O=S(=O)(N[C@@H]1CCN(CCCc2noc3cc(F)ccc23)C1)c1cc2ccccc2o1 [Compound 214] | 89

# map each molecule to its inhibition at 1 µM
1. O=S(=O)(N[C@@H]1CCN(CCCc2noc3cc(F)ccc23)C1)c1ccc2ccccc2c1 [Compound 206]
2. O=S(=O)(NCC1CCN(CCCc2noc3cc(F)ccc23)C1)c1ccc2c(c1)CCO2 (stereo not shown) [Compound 256]

Result:
95
25

----------
tested.system: 5-HT6 serotoninergic receptors (Homo sapiens)
Sequence (P50406 whole entry): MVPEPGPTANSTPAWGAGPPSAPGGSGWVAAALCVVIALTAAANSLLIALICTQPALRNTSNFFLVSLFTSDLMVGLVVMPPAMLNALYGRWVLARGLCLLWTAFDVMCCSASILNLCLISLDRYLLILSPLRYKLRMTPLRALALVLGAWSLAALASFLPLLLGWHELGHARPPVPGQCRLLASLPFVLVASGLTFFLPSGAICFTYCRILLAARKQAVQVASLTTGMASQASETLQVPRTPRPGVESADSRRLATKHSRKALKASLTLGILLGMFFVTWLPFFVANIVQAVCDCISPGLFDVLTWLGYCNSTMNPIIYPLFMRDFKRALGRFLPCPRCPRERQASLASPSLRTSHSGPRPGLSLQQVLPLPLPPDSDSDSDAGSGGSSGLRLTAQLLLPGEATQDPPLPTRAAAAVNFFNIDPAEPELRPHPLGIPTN
measurement.protocol: Cellular functional assay, 5-HT6 serotoninergic receptors
Type: cell-based
reported.conditions: agonist mode; percent of control specific agonist response
Exercise: state measured 5-HT6 ag [%] for each of the compounds provided.
Numbers only, in %.

# map each compound to its 5-HT6 ag [%]
1. Cc1cc(S(=O)(=O)NC2CCN(CCCc3noc4cc(F)ccc34)C2)c(C)s1 (centres unmarked)
2. O=S(=O)(NCC1CN(CCCc2noc3cc(F)ccc23)C1)c1ccc2ccccc2c1

Result:
−4
4

# map each compound to its 5-HT6 ag [%]
1. O=S(=O)(NC1CCN(CCCc2noc3cc(F)ccc23)C1)c1ccc2ccccc2c1 (centres unmarked)
2. O=S(=O)(N[C@H]1CCN(CCCc2noc3cc(F)ccc23)C1)c1csc2ccccc12
3. O=S(=O)(NCC1CN(CCOc2cccc3ccccc23)C1)c1ccc2ccccc2c1
4. Cc1cc(S(=O)(=O)N[C@H]2CCN(CCCc3noc4cc(F)ccc34)C2)c(C)s1
5. O=S(=O)(NCC1CCN(CCCc2noc3cc(F)ccc23)C1)c1cccc2ccccc12 (centres unmarked)

Result:
1
1
0
−1
2

# map each compound to its 5-HT6 ag [%]
1. O=S(=O)(N[C@@H]1CCN(CCCc2noc3cc(F)ccc23)C1)c1cc2ccccc2o1
2. O=S(=O)(N[C@@H]1CCN(CCCc2noc3cc(F)ccc23)C1)c1cc2ccc(Cl)cc2s1
3. O=S(=O)(NC1CCN(CCCc2c[nH]c3ccc(F)cc23)C1)c1ccc2ccccc2c1 (centres unmarked)
4. Cc1ccc2sc(S(=O)(=O)N[C@@H]3CCN(CCCc4noc5cc(F)ccc45)C3)cc2c1

Result:
["−4", "−1", 9, "−2"]

----------
Exercise: state measured 5-HT6 [%] for each of the molecules provided.
tested.system: 5-HT6 receptor (Homo sapiens, UniProt P50406)
Construct: purchased PerkinElmer
Sequence (P50406 whole entry): as the sequence (P50406 whole entry) above
measurement.protocol: Radioligand binding assay, serotoninergic 5-HT6 receptors;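 also: test compound at 1 µM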
reported.conditions: binding assay result in %, Table 5a
Numbers only, in %.

Completed entries (count: 5):
- O=S(=O)(NC1CN(CCOc2cccc3c2OCCO3)C1)c1ccc(Cl)cc1 [Compound 92]: 23
- Cc1cccc(S(=O)(=O)NCC2CCN(CCCc3noc4cc(F)ccc34)CC2)c1 [Compound 36]: 75
- Cc1cccc(S(=O)(=O)NC2CCN(CCOc3cccc4c3OCCO4)CC2)c1 [Compound 118]: 51
- O=S(=O)(NC1CCN(CCOc2cccc3[nH]ccc23)CC1)c1cccc2ccccc12 [Compound 60]: 69
- O=S(=O)(NCC1CCN(CCOc2ccc3cc[nH]c3c2)CC1)c1cccc2ccccc12 [Compound 71]: 80

# map each molecule to its 5-HT6 [%]
1. Cc1cccc(S(=O)(=O)NC2CN(CCOc3cccc4c3OCCO4)C2)c1 [Compound 93]
2. O=S(=O)(NCC1CN(CCCc2noc3cc(F)ccc23)C1)c1cc2ccccc2s1 [Compound 127]
3. O=S(=O)(NCC1CCN(CCCc2noc3cc(F)ccc23)CC1)c1ccc2ccccc2c1 [Compound 38]

Result:
[29, 96, 104]

# map each molecule to its 5-HT6 [%]
1. CC1(C)Cc2cccc(OCCN3CCC(NS(=O)(=O)c4cccc(O)c4)CC3)c2O1 [Compound 109]
2. O=S(=O)(NC1CN(CCOc2cccc3c2OCCO3)C1)c1cccc(Cl)c1 [Compound 91]
3. O=S(=O)(NC1CCN(CCCc2noc3cc(F)ccc23)CC1)c1ccccc1 [Compound 32]

Result:
67
−20
63
